Biological target: LRRK2 (human) (UniProt Q5S007)
Sequence (Q5S007 whole entry, looked up): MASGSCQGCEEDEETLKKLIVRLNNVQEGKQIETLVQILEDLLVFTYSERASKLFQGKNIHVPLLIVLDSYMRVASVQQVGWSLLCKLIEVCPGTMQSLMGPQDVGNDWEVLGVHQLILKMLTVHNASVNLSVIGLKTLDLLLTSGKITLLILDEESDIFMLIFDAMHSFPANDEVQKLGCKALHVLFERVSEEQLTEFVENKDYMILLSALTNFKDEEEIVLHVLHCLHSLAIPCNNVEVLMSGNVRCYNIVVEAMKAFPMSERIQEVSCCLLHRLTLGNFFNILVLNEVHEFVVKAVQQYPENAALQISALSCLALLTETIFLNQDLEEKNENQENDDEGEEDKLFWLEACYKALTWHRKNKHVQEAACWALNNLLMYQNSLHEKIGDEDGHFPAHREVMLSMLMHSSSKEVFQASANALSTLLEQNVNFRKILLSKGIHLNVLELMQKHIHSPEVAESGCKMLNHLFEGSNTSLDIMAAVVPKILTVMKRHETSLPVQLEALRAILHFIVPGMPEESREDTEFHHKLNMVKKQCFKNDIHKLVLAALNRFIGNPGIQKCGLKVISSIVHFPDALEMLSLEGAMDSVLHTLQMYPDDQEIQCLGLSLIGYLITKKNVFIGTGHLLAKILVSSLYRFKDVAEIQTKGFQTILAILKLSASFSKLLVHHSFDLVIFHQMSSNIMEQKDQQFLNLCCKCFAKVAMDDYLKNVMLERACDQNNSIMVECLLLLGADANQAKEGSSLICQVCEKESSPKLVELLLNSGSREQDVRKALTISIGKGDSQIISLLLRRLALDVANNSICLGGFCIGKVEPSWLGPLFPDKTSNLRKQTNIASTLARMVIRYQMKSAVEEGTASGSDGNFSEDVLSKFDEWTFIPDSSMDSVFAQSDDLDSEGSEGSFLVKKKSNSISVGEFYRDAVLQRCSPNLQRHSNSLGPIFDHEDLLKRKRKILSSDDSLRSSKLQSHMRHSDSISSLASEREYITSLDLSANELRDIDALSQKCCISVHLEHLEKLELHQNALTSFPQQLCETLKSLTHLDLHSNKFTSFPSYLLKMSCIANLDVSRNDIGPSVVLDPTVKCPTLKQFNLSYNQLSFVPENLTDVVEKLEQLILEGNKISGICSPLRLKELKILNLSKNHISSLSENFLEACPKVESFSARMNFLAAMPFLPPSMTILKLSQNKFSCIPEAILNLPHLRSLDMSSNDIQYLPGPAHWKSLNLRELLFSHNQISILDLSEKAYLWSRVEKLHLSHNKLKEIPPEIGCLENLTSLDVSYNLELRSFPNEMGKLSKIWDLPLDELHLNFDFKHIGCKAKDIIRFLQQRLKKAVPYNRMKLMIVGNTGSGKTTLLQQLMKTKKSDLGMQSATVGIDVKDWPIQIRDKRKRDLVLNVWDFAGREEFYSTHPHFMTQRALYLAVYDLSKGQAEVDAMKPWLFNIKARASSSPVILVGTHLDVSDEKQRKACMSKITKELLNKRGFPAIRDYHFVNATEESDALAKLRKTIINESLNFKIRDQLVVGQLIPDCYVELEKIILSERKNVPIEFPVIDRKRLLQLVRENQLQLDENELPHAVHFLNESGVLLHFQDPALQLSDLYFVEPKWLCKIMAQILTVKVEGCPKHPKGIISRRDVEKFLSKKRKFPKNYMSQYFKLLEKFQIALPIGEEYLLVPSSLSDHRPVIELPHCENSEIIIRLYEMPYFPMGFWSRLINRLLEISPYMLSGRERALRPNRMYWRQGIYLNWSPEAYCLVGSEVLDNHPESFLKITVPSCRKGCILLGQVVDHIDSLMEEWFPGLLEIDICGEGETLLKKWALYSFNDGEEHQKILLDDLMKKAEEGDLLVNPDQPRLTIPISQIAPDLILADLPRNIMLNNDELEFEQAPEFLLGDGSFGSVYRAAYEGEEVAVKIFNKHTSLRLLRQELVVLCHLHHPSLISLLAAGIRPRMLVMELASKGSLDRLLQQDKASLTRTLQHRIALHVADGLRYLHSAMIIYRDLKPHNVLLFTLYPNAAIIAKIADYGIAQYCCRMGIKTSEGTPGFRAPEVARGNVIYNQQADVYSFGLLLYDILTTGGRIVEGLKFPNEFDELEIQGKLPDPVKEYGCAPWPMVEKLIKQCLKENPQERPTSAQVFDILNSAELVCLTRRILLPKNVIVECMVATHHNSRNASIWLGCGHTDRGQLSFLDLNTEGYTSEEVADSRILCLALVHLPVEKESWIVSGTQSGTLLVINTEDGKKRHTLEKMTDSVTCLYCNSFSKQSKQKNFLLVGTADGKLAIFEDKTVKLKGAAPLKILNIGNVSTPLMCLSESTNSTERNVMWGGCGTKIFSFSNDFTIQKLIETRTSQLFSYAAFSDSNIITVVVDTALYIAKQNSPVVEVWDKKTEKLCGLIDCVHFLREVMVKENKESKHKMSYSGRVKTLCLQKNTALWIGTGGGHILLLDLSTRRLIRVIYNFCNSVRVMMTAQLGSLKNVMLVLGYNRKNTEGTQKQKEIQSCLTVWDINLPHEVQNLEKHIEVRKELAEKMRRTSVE
Test: radiometric filter-binding kinase assay, Kinase HotSpot
Conditions: compound 0.5 µM; ATP 10 µM
parameter measured: residual activity (%)
# number only, unit % dropped from output

# input compound: c1ccc2c(-c3ccncc3)c[nH]c2c1 ; wanted: its residual activity
92.8

# input compound: COc1ccc(Cl)cc1NC(=O)Nc1cc(C)nc2ccccc12 ; wanted: its residual activity
98

# input compound: COc1cc(Nc2c(C#N)cnc3cc(OCCCN4CCN(C)CC4)c(OC)cc23)c(Cl)cc1Cl ; wanted: its residual activity
30.1

# input compound: CN(C)CCCn1cc(C2=C(c3c[nH]c4ccccc34)C(=O)NC2=O)c2ccccc21 ; wanted: its residual activity
89.8

# input compound: CS(=O)(=O)CCNCc1ccc(-c2ccc3ncnc(Nc4ccc(OCc5cccc(F)c5)c(Cl)c4)c3c2)o1 ; wanted: its residual activity
76.9

# input compound: O=C1C(Cl)=C(N2C(=O)CCC2=O)C(=O)c2ccccc21 ; wanted: its residual activity
103

# input compound: CN(C)c1ccc(/C=C2\C(=O)Nc3ccccc32)cc1 ; wanted: its residual activity
89.8

# input compound: Cn1c2ccccc2c2c3c(c4c5ccccc5n(CCC#N)c4c21)CNC3=O ; wanted: its residual activity
30.5

# input compound: CCCCc1c(-c2ccc(OC)cc2)[nH]c2nccnc12 ; wanted: its residual activity
83

# input compound: COc1cc2ncnc(Nc3ccc(OCc4ccccc4)cc3)c2cc1OC ; wanted: its residual activity
92.2

# input compound: Fc1ccc(-c2nc3n(c2-c2ccncc2)CCS3)cc1 ; wanted: its residual activity
96.7

# input compound: CO[C@@H]1[C@H](N(C)C(=O)c2ccccc2)C[C@H]2O[C@]1(C)n1c3ccccc3c3c4c(c5c6ccccc6n2c5c31)C(=O)NC4 ; wanted: its residual activity
8.46

# input compound: NC(=O)c1cccc(-c2cc(Nc3ccc(OC(F)(F)F)cc3)ncn2)c1 ; wanted: its residual activity
108

# input compound: COc1ccc2c(c1)c(C1=C(c3c[nH]c4ccccc34)C(=O)NC1=O)cn2CCCN(C)C ; wanted: its residual activity
87

# input compound: N#C/C(=C\c1ccc(O)c(O)c1)C(=O)NCc1ccccc1 ; wanted: its residual activity
101

# input compound: COc1ccc(C(=O)Nc2sc3c(c2C(N)=O)CCCC3)cc1OC ; wanted: its residual activity
87.4

# input compound: C[C@@H]1CCN(C(=O)CC#N)C[C@@H]1N(C)c1ncnc2[nH]ccc12 ; wanted: its residual activity
51.3

# input compound: CC(C)(C)c1cc(C=C(C#N)C#N)cc(Br)c1O ; wanted: its residual activity
109

# input compound: Cc1nc(-c2ccccc2)c(-c2ccncc2)o1 ; wanted: its residual activity
96.8

# input compound: O=C1Nc2ccc(Br)cc2/C1=C\c1cc2c([nH]1)CCCC2 ; wanted: its residual activity
7.03

# input compound: Cc1cncc2cccc(S(=O)(=O)N3CCCN(C(=O)CN)C[C@H]3C)c12 ; wanted: its residual activity
54.6

# input compound: Cc1cccc(-c2nc(C(C)(C)C)[nH]c2-c2ccc3c(c2)OCO3)n1 ; wanted: its residual activity
103

---

Target: EPHB1 (human)
Assay: radiometric filter-binding kinase assay, Kinase HotSpot
Conditions: compound 0.5 µM; ATP 10 µM
Could you please report measured residual activity for the items listed next?
# number only, unit % dropped from output

# input compound: c1ccc2c(-c3ccncc3)c[nH]c2c1 ; wanted: its residual activity
108

# input compound: O=C1NC(=O)c2c1c1c3ccccc3[nH]c1n1cncc21 ; wanted: its residual activity
94

# input compound: Cc1nc(-c2ccccc2)c(-c2ccncc2)o1 ; wanted: its residual activity
107

# input compound: Cn1c2ccccc2c2c3c(c4c5ccccc5n(CCC#N)c4c21)CNC3=O ; wanted: its residual activity
95

# input compound: O=C1Nc2ccc(Br)cc2/C1=C\c1cc2c([nH]1)CCCC2 ; wanted: its residual activity
85.5

# input compound: N#C/C(=C\c1ccc(O)c(O)c1)C(=O)NCc1ccccc1 ; wanted: its residual activity
87.4

# input compound: COc1cc2ncnc(Nc3ccc(OCc4ccccc4)cc3)c2cc1OC ; wanted: its residual activity
101

# input compound: COc1ccc(S(=O)(=O)N(CCO)c2ccccc2CN(C)C/C=C/c2ccc(Cl)cc2)cc1 ; wanted: its residual activity
93.3

# input compound: Fc1ccc(-c2nc3n(c2-c2ccncc2)CCS3)cc1 ; wanted: its residual activity
106

# input compound: COc1cc2ncnc(Nc3ccc(Oc4ccccc4)cc3)c2cc1OC ; wanted: its residual activity
108

# input compound: CN(C)c1ccc(/C=C2\C(=O)Nc3ccccc32)cc1 ; wanted: its residual activity
102

# input compound: COc1ccc2c(c1)c(C1=C(c3c[nH]c4ccccc34)C(=O)NC1=O)cn2CCCN(C)C ; wanted: its residual activity
91.7

# input compound: Cc1cccc(-c2nc(C(C)(C)C)[nH]c2-c2ccc3c(c2)OCO3)n1 ; wanted: its residual activity
95.5

# input compound: COc1ccc2c(c1)/C(=C/c1cnc[nH]1)C(O)=N2 ; wanted: its residual activity
92.2

# input compound: CN(C)S(=O)(=O)c1ccc2c(c1)/C(=C/c1cc3c([nH]1)CCCC3)C(=O)N2 ; wanted: its residual activity
82.8

# input compound: NC(=O)c1cccc(-c2cc(Nc3ccc(OC(F)(F)F)cc3)ncn2)c1 ; wanted: its residual activity
105

# input compound: CN(C)CCCn1cc(C2=C(c3c[nH]c4ccccc34)C(=O)NC2=O)c2ccccc21 ; wanted: its residual activity
87.4

# input compound: CC(C)(C)c1cc(C=C(C#N)C#N)cc(Br)c1O ; wanted: its residual activity
114

# input compound: C[C@@H]1CCN(C(=O)CC#N)C[C@@H]1N(C)c1ncnc2[nH]ccc12 ; wanted: its residual activity
106

# input compound: O=C1C(Cl)=C(N2C(=O)CCC2=O)C(=O)c2ccccc21 ; wanted: its residual activity
97.2

# input compound: O=C(c1cc2cc(O)ccc2[nH]1)c1cc2cc(O)ccc2[nH]1 ; wanted: its residual activity
97

# input compound: N#Cc1c[nH]c2c[nH]/c(=N\Cc3cccnc3)cc2/c1=N\c1ccc(F)c(Cl)c1 ; wanted: its residual activity
93.1
